Measured values drawn from patent US20160200813A1 for this set.

# test-system: T1, Cynomolgus monkey LRP-8 expressed on HEK293 cells (cynomolgus monkey)
# T1 construct: whole, on cells; also called cyno LRP-8; cLRP-8
# assay-details: cell-based ECL-MSD, 10 ug/ml Ab, cyno-LRP-8-HEK293

| binder | scale-unit | fold over mIgG control |
| --- | --- | --- |
| anti-LRP-8 ML201-8F3.3D7 murine antibody (muFc) (antibody, V domains shown, Mouse Fc form; also called ML201-8F3-3D7 muFc; CL-33866) VH: EVQLVESGGDLVKPGGSLKLSCAASRFTFSNFGMSWVRQTPDKRLEWVATISSGGRYTYYPDSVKGRFTISRDNAKNTLYLQMSSLRSEDTAMYYCARDYLYAMDYWGQGTSVTVSS VL: DVVMTQTPLSLPVSLGDQASISCRSSQSLVYSNGNTYLHWYLQKPGQSPKVLMYKVSNRFSGVSDRFSGSGSGTDFTLKISRVEAEDLGVYFCSQSTHVPLTFGAGTKLELK | fold | 5.2 |
